Test system: SNB-19 CNS
Assay: NCI-60 one-dose screen, 48 h (100 = growth as untreated, 0 = no growth, -100 = all killed)
Conditions: 10 µM unless noted
Procedure: Growth inhibition of the SNB-19 human tumor cell line is measured as a screen for anti-cancer activity. Cells are grown in 96 well plates and exposed to the test compound for 48 hours. Compounds are tested at a single concentration, which is 10^-5 M for most compounds. The reported endpoint is percent growth (GI% or GIPRCNT), where numbers from 0 - 100% represent growth inhibition, and numbers from -100% - 0 represent cell death. For example, a value of 40 represents 60% growth inhibition. […]
This is part of a sample that, as a whole, favours compounds with a hit. Of some 83,000 tested, about 20% had one in any assay.
The entries below are paired with their reported growth.
Please respond with the number in % and leave the unit unwritten.

Sample answers from the record:
[[record]]
compound = "CC(C)(C)c1nc(-c2ccc(O)c(O)c2)cs1"
value_kind = "growth"
measurement = 72.1

[[record]]
compound = "NCCn1cc(-c2nc(-c3c[nH]c4ncccc34)cs2)c2ccccc21"
value_kind = "growth"
measurement = 89.4

[[record]]
compound = "Cn1cccc1/C=C1/SC(=S)N(CCc2ccc(O)cc2)C1=O"
value_kind = "growth"
measurement = 47.2


I would be grateful if you could share the reported growth for "CC(C)(C)n1cc(-c2ccnc(NCCCNS(=O)(=O)c3ccc(Cl)cc3)c2)c(-c2cccc(F)c2)n1" .
80

I would be grateful if you could share the reported growth for "COc1ccccc1CNc1nc(N)nc2[nH]c3ccc(O)cc3c12" .
59

I would be grateful if you could share the reported growth for "CC(=O)OC[C@]12CC[C@@H](/C(C)=N/O)[C@@H]1[C@H]1CC[C@@H]3[C@@]4(C)CCCNC(C)(C)[C@@H]4CC[C@@]3(C)[C@]1(C)CC2" .
83.1

I would be grateful if you could share the reported growth for "Cn1c2c(c3ccc(Cl)cc31)-n1cccc1C2=O" .
85.5

----------
Test system: SK-MEL-5 melanoma
Assay: NCI-60 one-dose screen, 48 h (100 = growth as untreated, 0 = no growth, -100 = all killed)
Conditions: 10 µM unless noted
This is part of a sample that, as a whole, favours compounds with a hit. Of some 83,000 tested, about 20% had one in any assay.
value-kind: growth (%)
Please respond with the number in % and leave the unit unwritten.

Sample answers from the record:
[[record]]
compound = "C=C(C)[C@@H]1CC[C@]2(/C=N/Nc3ccncc3)CC[C@]3(C)[C@H](CC[C@@H]4[C@@]5(C)CCCNC(C)(C)[C@@H]5CC[C@]43C)[C@@H]12"
measurement = 81.7

[[record]]
compound = "CC(=O)O[C@H]1CC[C@@]2(C)C(=CC[C@@H]3[C@@H]2CC[C@]2(C)C(=O)N(O)C(=O)C[C@@H]32)C1"
measurement = 98.4

[[record]]
compound = "COc1ccc(/C=C/C(=O)NCC(C)O)cc1 (centres undefined)"
measurement = 101

[[record]]
compound = "COC(=O)CCCCCn1c2ccccc2c2c3c(c4c5ccccc5[nH]c4c21)C(=O)N(O)C3=O"
measurement = 33.1

[[record]]
compound = "O=c1[nH]c(=S)[nH]c2nc[nH]c12"
measurement = 110


I would be grateful if you could share the reported growth for "O=c1c(CNc2ccc(S(=O)(=O)Nc3nccs3)cc2)coc2ccccc12" .
98.3

I would be grateful if you could share the reported growth for "CC(C)(C)c1cc(-n2c(-c3ccc(Cl)cc3)nc3cc(C(=O)Nc4ccc(Cl)cc4)ccc32)n[nH]1" .
44.8

I would be grateful if you could share the reported growth for CCCC(=O)N1CCCCC1CC (centres undefined) .
117
